ASSAYED_SYSTEM: T1, HER3 extracellular domain recombinant protein (human, UniProt P21860 20-643)
T1 construct: extracellular domain; also called HER3 extracellular domain protein; HER3 protein
T1 sequence (P21860 20-643): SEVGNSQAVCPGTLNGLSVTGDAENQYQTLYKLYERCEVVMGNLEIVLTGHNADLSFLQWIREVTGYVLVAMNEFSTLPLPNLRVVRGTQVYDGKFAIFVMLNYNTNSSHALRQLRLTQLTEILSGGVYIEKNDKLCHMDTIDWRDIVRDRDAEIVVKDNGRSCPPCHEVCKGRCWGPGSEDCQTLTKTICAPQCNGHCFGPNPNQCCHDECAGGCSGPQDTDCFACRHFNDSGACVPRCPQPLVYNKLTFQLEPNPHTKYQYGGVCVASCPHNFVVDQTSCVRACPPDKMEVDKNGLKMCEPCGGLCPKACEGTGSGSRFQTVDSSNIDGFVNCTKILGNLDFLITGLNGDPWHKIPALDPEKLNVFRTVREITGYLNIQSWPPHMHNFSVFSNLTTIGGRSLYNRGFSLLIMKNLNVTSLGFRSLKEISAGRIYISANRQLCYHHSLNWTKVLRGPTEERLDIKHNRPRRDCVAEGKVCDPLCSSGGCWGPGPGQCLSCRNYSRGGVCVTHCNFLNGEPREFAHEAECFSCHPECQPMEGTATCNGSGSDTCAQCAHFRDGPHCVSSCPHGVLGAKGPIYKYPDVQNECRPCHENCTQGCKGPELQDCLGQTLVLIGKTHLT
ASSAY_INFO: SPR, ProteOn XPR36; antibody captured by goat anti-human antibody, HER3 extracellular domain 1.25-20 nM as analyte, Langmuir model
In this section we review reported koff values for a set of binders.
PROPERTY_NAME: koff (s⁻¹)

1) humanized antibody hu1044-5 (VL63/69, VH38 back mutation) (antibody, human IgG1, V domains shown) VH: QVQLVQSGAEVKKPGSSVKVSCKASGGTFSNYWIDWVKQAPGQGLEWMGEILPGSGGTDYNEKFKGRVTITADTSTSTAYMELSSLRSEDTAVYYCARDDYDVFAYWGQGTLVTVSS VL: DIVMTQSPGTLSLSPGERATLSCRSSKSLLHSNGITYLYWYQQKPGQAPRLLIYQMSNLASGVPDRFSSSGSGTDFTLTISRLEPEDFAVYYCAQNLELPWTFGQGTKVEIKR | 0.000353
2) humanized antibody hu1044-6 (VL63/69, VH68 back mutation) (antibody, human IgG1, V domains shown) VH: QVQLVQSGAEVKKPGSSVKVSCKASGGTFSNYWIDWVRQAPGQGLEWMGEILPGSGGTDYNEKFKGRATITADTSTSTAYMELSSLRSEDTAVYYCARDDYDVFAYWGQGTLVTVSS VL: DIVMTQSPGTLSLSPGERATLSCRSSKSLLHSNGITYLYWYQQKPGQAPRLLIYQMSNLASGVPDRFSSSGSGTDFTLTISRLEPEDFAVYYCAQNLELPWTFGQGTKVEIKR | 0.00038
3) humanized antibody hu1044-7 (VL63/69, VH67/68 back mutation) (antibody, human IgG1, V domains shown) VH: QVQLVQSGAEVKKPGSSVKVSCKASGGTFSNYWIDWVRQAPGQGLEWMGEILPGSGGTDYNEKFKGKATITADTSTSTAYMELSSLRSEDTAVYYCARDDYDVFAYWGQGTLVTVSS VL: DIVMTQSPGTLSLSPGERATLSCRSSKSLLHSNGITYLYWYQQKPGQAPRLLIYQMSNLASGVPDRFSSSGSGTDFTLTISRLEPEDFAVYYCAQNLELPWTFGQGTKVEIKR | 0.000376
4) 1044 human-mouse chimeric antibody (antibody, V domains shown) VH: EVQLQQSGTELMKPGASVKISCKATGGTFSNYWIDWVKQRPGHGLEWIGEILPGSGGTDYNEKFKGKATFTADTSSNTAYMQLSSLTSEDSAVYYCARDDYDVFAYWGQGTLVTVSA VL: DIVMTQAAFSNPVTLGTSASISCRSSKSLLHSNGITYLYWYLQKPGQSPQLLIYQMSNLASGVPDRFSSSGSGTDFTLRISRVEAEDVGVYYCAQNLELPWTFGGGTKLEIKR | 0.000293
5) humanized antibody hu1044 (VL69, VH38 back mutation) (antibody, V domains shown, also called final humanized antibody hu1044) VH: QVQLVQSGAEVKKPGSSVKVSCKASGGTFSNYWIDWVKQAPGQGLEWMGEILPGSGGTDYNEKFKGRVTITADTSTSTAYMELSSLRSEDTAVYYCARDDYDVFAYWGQGTLVTVSS VL: DIVMTQSPGTLSLSPGERATLSCRSSKSLLHSNGITYLYWYQQKPGQAPRLLIYQMSNLASGIPDRFSSSGSGTDFTLTISRLEPEDFAVYYCAQNLELPWTFGQGTKVEIKR | 0.000386
